From: patent US3984543A

Test: Calcium phosphate dissolution in vitro (CaHPO4 test)
Assay type: physicochemical
Conditions: 10 mg/ml solution, pH 7.4, clear solution after 1 hour
Response field label takes True when Consumption Sequestering Agent Solution is strictly below 5 mL and False in all other cases.

Use these answered entries as a reference point.
NC1(P(=O)(O)O)CCCC(=O)NP1(=O)O (centres unmarked) [n=3, R=H]: True
NC1(P(=O)(O)O)CC(=O)NP1(=O)O (centres unmarked) [n=1, R=H]: False

Request: Strictly below 5 mL in Consumption Sequestering Agent Solution? CNC1(P(=O)(O)O)CCC(=O)N(C)P1(=O)O (centres unmarked) [n=2, R=CH3]
Result: True

Request: Just wondering, is Consumption Sequestering Agent Solution of NC1(P(=O)(O)O)CCC(=O)NP1(=O)O (centres unmarked) [n=2, R=H] below 5 mL?
Result: False

----------
Would you mind telling me the reported mg CaHPO4 dissolved / gm Sequestering Agent of each entry?
Experiment: Calcium phosphate dissolution in vitro (CaHPO4 test)
Format: physicochemical
Settings: pH 7.4, 1 hour

As a guide, the following entries are already answered.
CNC1(P(=O)(O)O)CCC(=O)N(C)P1(=O)O (centres unmarked) [n=2, R=CH3]: 850 mg CaHPO4 / gm Sequestering Ag
NC1(P(=O)(O)O)CCC(=O)NP1(=O)O (centres unmarked) [n=2, R=H]: 570 mg CaHPO4 / gm Sequestering Ag
NC1(P(=O)(O)O)CCCC(=O)NP1(=O)O (centres unmarked) [n=3, R=H]: 1350 mg CaHPO4 / gm Sequestering Ag
NC1(P(=O)(O)O)CC(=O)NP1(=O)O (centres unmarked) [n=1, R=H]: 420 mg CaHPO4 / gm Sequestering Ag

We next turn to a different molecule, shown below.
Request: State the recorded mg CaHPO4 dissolved / gm Sequestering Agent for this entry: CNC1(P(=O)(O)O)CCCC(=O)N(C)P1(=O)O (centres unmarked) [n=3, R=CH3]
Result: 680 mg CaHPO4 / gm Sequestering Ag

----------
Experiment: Acute toxicity (LD50) in mice
Conditions: mouse, in vivo
Quantity Kind: LD50
Returns: string containing the numeric result and its unit.

NC1(P(=O)(O)O)CCC(=O)NP1(=O)O (centres unmarked): 3200 mg/kg

Next item in the queue.
Request: Name the recorded LD50 for NC1(P(=O)(O)O)CCCC(=O)NP1(=O)O (centres unmarked) .
Result: 10000 mg/kg

----------
Would you mind telling me the reported mg CaCO3 Sequestered per gm of Compound of each entry?
Assay: Sequestration of calcium (modified Hampshire test)
Assay type: physicochemical
Conditions: pH 11

Reference set (5 entries):
CNC1(P(=O)(O)O)CCCC(=O)N(C)P1(=O)O (stereo not drawn): 660 mg CaCO3 per gm of Compound
CCNC1(P(=O)(O)O)CCC(=O)N(CC)P1(=O)O (stereo not drawn): 1110 mg CaCO3 per gm of Compound
NC1(P(=O)(O)O)CCC(=O)NP1(=O)O (stereo not drawn): 1040 mg CaCO3 per gm of Compound
NC1(P(=O)(O)O)CC(=O)NP1(=O)O (stereo not drawn): 1040 mg CaCO3 per gm of Compound
NC1(P(=O)(O)O)CCCC(=O)NP1(=O)O (stereo not drawn): 810 mg CaCO3 per gm of Compound

Request: I have this compound here, CNC1(P(=O)(O)O)CCC(=O)N(C)P1(=O)O (stereo not drawn) , and I need its recorded mg CaCO3 Sequestered per gm of Compound.
Result: 840 mg CaCO3 per gm of Compound
